// data source = PubChem BioAssay

target: Torsin-1A-interacting protein 2 (Homo sapiens) (UniProt Q8NFQ8); assay: LULL1 binders on small-molecule microarray, primary screen, cell lysate, human LULL1 lysate, 635/667 nm fluorescence (AID 1092); details: hLULL1 lysate binding, 635 nm fluorescence, higher = more signal;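 further: probe is lysate of COS7 cells overexpressing human LULL1; score merges per-feature 667 nm fluorescence with signal-to-noise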
Sequence (Q8NFQ8 whole entry, looked up): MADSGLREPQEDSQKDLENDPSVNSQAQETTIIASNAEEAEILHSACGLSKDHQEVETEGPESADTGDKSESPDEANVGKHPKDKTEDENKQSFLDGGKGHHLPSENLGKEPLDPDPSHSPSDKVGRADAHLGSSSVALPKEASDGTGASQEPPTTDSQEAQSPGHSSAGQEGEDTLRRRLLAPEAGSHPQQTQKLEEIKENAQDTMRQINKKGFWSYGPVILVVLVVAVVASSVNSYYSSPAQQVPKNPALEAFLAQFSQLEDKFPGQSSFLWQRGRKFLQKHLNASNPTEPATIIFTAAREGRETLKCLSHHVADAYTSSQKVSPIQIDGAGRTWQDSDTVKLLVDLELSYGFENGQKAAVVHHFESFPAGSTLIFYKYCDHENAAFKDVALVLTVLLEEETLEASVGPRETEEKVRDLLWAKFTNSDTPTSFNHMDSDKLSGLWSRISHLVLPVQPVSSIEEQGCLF
Recorded measurements of composite z-score, one per entry
Outcome Measure: composite z-score

{"columns": ["Compound", "Outcome Measure", "Reported Value"],
 "data": [
  ["C=CC(COC(C)=O)NS(=O)(=O)c1ccc(Br)cc1 (stereo not drawn)", "composite z-score", 0.185],
  ["CN1C=C(C(=O)OCCS(C)(=O)=O)C(C(=O)OCCS(C)(=O)=O)=CC(CCCO)=CC1C1CC1 (stereo not drawn)", "composite z-score", 0.826],
  ["O=C1N(CCS(=O)(=O)c2ccccc2)c2ccccc2C[C@@]12COC(c1ccc(OCCCO)cc1)=N2", "composite z-score", 2.9]
]}
